Measured reverse-splicing fitness values are reported for all entries that follow.
B1: Azoarcus group I ribozyme (parent)
chain: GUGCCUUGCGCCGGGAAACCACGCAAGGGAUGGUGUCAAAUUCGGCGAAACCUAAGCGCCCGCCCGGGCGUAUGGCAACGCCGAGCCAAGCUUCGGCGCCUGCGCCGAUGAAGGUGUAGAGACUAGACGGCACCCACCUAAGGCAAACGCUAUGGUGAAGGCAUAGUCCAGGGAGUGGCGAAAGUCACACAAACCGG

- Variants of: B1
- ASSAY: reverse-splicing fitness (ratio to wild type); higher = more active; in vitro selection; Mg2+ level not given
Please reply with the value in numeric form only.

Examples from the recorded data:
- MUTANT_ID: "C82U A111C A120G A145G C150A C169U"
  reverse-splicing fitness: 0.00786
- MUTANT_ID: "C82U A111U A120U C150A C169A U176G"
  reverse-splicing fitness: 0.00224
- MUTANT_ID: "C82U A111U A120C A145C C150U C169A U176C"
  reverse-splicing fitness: 0.00517
- MUTANT_ID: "C82G A111C A145C C150U C169G U176A"
  reverse-splicing fitness: 0.0245
- MUTANT_ID: "C82A A111G A120U C150A C169A"
  reverse-splicing fitness: 0.00447
- MUTANT_ID: "C82U A120C C150A C169G U176C"
  reverse-splicing fitness: 0.0164
- MUTANT_ID: "A120C A145C C169G"
  reverse-splicing fitness: 0.0239
- MUTANT_ID: "C82U A120C A145U C150U U176G"
  reverse-splicing fitness: 0.00795

What does the record list as reverse-splicing fitness for A111G A120G C150A U176A ?
0.0188

And for C82U A111G A120U A145U C150A C169U ?
0.00292

And for C82A A111C A120C A145U C169U U176C ?
0.0141

And for A111C A120G A145C C150G C169U ?
0.0248

And for C82G A111G A120U A145G C150U U176G ?
0.00429

And for C82G A111C A120C A145C C150U C169A U176A ?
0.0125
